Biological target: synthetic Aβ(1-40) amyloid fibrils (Homo sapiens)
Assay: Competition binding against [3H]PIB on Aβ
Details: read-out: IC50, inhibition of [3H]PIB binding; [3H]PIB 3 nM, Aβ(1-40) fibrils
Measured Property: IC50 (nM)
One number for each entry, in nM.

// fetch IC50 given entry CNc1ccc(-c2nc3ccc(O)cc3o2)cn1 [AZD2995]
170

====

Molecular target: Aβ(1-42) amyloid fibrils (Homo sapiens)
Sequence (P05067 672-713): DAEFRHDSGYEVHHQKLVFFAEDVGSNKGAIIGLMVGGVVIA
Assay: Competition binding against [3H]PIB on Aβ
Details: read-out: IC50, inhibition of [3H]PIB binding; [3H]PIB 3 nM, Aβ(1-42) fibrils
Measured Property: IC50 (nM)
Give bare numbers, in nM.

Output reported IC50 of the compound CNc1ccc(-c2nc3ccc(O)cc3o2)cn1 [AZD2995] on Aβ(1-42) amyloid fibrils (Homo sapiens).
204
